Each recorded value in this set is attributed to patent US20210403595.

# target_or_system: human CD3 epsilon/delta heterodimer, Fc-tagged (human)
# Sequence (chain, as listed by the source mutant, chain 1 of 2): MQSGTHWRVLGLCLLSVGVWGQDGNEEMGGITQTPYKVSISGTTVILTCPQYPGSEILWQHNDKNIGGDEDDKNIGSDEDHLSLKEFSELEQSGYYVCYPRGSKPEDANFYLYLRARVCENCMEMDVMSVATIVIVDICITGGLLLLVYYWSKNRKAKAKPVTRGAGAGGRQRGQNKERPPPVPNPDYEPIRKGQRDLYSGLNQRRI
# Sequence (chain, as listed by the source mutant, chain 2 of 2): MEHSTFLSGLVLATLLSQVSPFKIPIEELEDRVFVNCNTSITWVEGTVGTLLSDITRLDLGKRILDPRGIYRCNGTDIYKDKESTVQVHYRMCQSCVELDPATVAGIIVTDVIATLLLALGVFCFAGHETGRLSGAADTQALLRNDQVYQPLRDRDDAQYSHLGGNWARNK
# assay: SPR, 25C antigen-capture
pKd for assorted binders
// pKd is dimensionless: -log10 of concentration (M)

Worked set:
binder="H1H5764P (antibody, V domains shown) VH: QVQLVESGGGVVQPGRSLRLSCAASGFTFRSFGMHWVRQAPGKGLEWVAVISYDGNYKYYADSVKGRFTISRDNSKNTLYLQMNSLRAEDTAVHYCAKGAMVRGVPYNFYYGMDVWGQGTTVTVSS VL: DIQMTQSPSSLSASVGDRVTITCRASQVIRNDLGWYQQKPGKAPKRLIYAASSLQSGIPSRFSGSGSGTEFTLTISSLQPEDFATYYCLQHNSYPYTFGQGTKLEIK" measurement_type=pKd numeric_result=7.68
binder="H1H5751P (antibody) chain 1: EVQLVESGGDLVQPGRSLRLSCAASGFTFDDYTMHWVRQAPGKGLEWVSIISWNGNTIDYADSVKGRFTISRDNAKNSLYLQMNSLRAEDTALYYCAKDKSGYGHFYYYVLDVWGQGTTVTVSS chain 2: DIQMTQSPSSLSASVGDRVTITCRASQSINNYLNWYQQKPGKAPKLLIYAASSLQSGVPSRFSGSGSGTDFTLTISSLQPEDFATYYSQQSYSFPWTFGQGTKVEIK" measurement_type=pKd numeric_result=8.47
binder="H1H5761P (antibody, V domains shown) VH: QVQLVESGGGVVQPGRSLRLSCAASGFTFSSYGMHWVRQAPGKGLEWVAVISYDGSNKYYADSVKGRFTISRDYSKNTLYLQMNSLRAEDTAVFYCAKGAMVRGVPYNYYYGMDVWGQGTTVTVSS VL: DIQMTQSPSSLSASVGDRVTITCRASQGIRNDLGWFQQKPGKAPKRLIYAASSLQSGVPSRFSGSGSGTEFTLTISSLQPEDFATYYCLQHNSYPYTFGQGTKLEIK" measurement_type=pKd numeric_result=7.27

Ask: Entry H1H5777P (antibody, V domains shown) VH: EVQLVESGGGLVQPGRSLRLSCAASGFTFDDYAMHWVRQAPGKGLEWVSGISWNSGSRDYADSVKGRFTISRDNARNSLFLQMNSLSTEDTALYYCAKDKSGYGSYYYGMDVWGQGTTVTVSS VL: EIVLTQSPGTLSLSPGDRATLSCRASQSIRSIYLAWYQQKPGQAPRLLIHGASTRATGIPDRFSGSGSGTDFTLTISRLEPEDFAVYYCQQRVSSPYTFGQGTKLEIK has what pKd?
Reply: 8.45
